Test system: HCV replicon cells
Assay: Cell-based HCV replicon assay (replicon RNA level by real time PCR, Taqman)
Settings: Hepatitis C virus, 72 h, HCV replicon cells, harvested day 3, replicon RNA by real time PCR; given as number; read-out: EC90 (μM) range
Method: Assays Cell-Based HCV Replicon Assay To measure cell-based anti-HCV activity of the compounds of the present invention, replicon cells were seeded at 5000 cells/well in 96-well collagen I-coated Nunc plates in the presence of the compound of the invention. […] The replicon RNA level was measured using real time PCR (Taqman assay). […]
Assign log10 EC90 to each entry below.
Hello, just confirming the data are log10 of EC90 with units of µM.

[ask] Give a short answer stating reported log10 EC90 for Cc1nc(NCC(C)(C)C)nc(N[C@@H]2C[C@H](CO)[C@@H](O)[C@H]2O)c1-c1cc2cc(OCC3CC3)ncc2o1 [Example 58] .
[reply] 0.00

[ask] Report measured log10 EC90; entry is CON=C1[C@H](Nc2nc(NCC(F)(F)F)nc(C)c2-c2nc3ccccc3s2)C[C@H](CO)[C@H]1O [Example 55]
[reply] 0.53

[ask] Assign log10 EC90 to the following record: CCCOc1cc2cc(-c3c(C)nc(NCC4CC4)nc3N[C@@H]3C[C@H](CO)[C@@H](O)[C@H]3O)oc2c(C)n1 [Example 38]
[reply] -0.60

[ask] Complete the entry with log10 EC90 for CCCOc1cc2cc(-c3c(C)nc(NCC4CC4)nc3N[C@@H]3C[C@H](CO)[C@@H](O)[C@H]3O)oc2cn1 [Example 62]
[reply] -0.15

[ask] Annotate the molecule Cc1nc(NCC2CC2)nc(N[C@@H]2C[C@H](CO)[C@@H](O)[C@H]2O)c1-c1cc2cc(OCC3CC3)nc(C)c2o1 [Example 42] with its measured log10 EC90.
[reply] -0.52

[ask] Write down log10 EC90 measured for item CCOc1cc2cc(-c3c(C)nc(NCC4CC4)nc3N[C@@H]3C[C@H](CO)[C@@H](O)C3)oc2c(C)n1 [Example 52]
[reply] -0.52
